Data credit: ChEMBL document CHEMBL1125396

Biological target: Muscarinic acetylcholine receptor M1 (Rattus norvegicus, UniProt P08482)
Sequence (P08482 whole entry): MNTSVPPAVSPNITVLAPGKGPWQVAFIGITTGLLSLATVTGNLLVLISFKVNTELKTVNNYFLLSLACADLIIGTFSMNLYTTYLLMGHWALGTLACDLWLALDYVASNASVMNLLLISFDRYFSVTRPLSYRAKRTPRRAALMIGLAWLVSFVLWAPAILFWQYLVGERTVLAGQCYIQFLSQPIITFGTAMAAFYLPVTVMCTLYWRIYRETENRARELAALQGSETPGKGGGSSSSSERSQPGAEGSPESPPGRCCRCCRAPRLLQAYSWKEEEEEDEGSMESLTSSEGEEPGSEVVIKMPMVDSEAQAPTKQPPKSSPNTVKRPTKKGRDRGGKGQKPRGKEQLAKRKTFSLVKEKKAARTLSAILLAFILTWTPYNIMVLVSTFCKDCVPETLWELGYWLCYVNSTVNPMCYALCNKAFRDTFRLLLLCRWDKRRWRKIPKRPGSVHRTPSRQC
Experiment: Compound was tested in vitro for depolarizing response on the rat superior cervical ganglion (mediated by Muscarinic M1 receptor
Assay type: functional, tissue-based
pEC50: −log10 of the molar value.

# smilesCode, pEC50
records = [
    ("Cc1noc([C@H]2CN3CC[C@@H]2C3)n1", 7.05),
]

###

The following compounds are shown together with reported K app values.
molecular target: Muscarinic acetylcholine receptor (Rattus norvegicus) (UniProt P08482+P08483+P08485+P08911+P10980); test: In vitro ability to displace [3H]N-methylscopolamine from the muscarinic receptor in rat cerebral cortical membranes; type: cell membranes
assayEndpoint: K app (nM)

# smilesCode, observedResult
measured = [
    ("Cc1noc([C@@H]2CN3CC[C@@H]2C3)n1", 370),
    ("Cc1noc([C@H]2CN3CC[C@@H]2C3)n1", 2200),
    ("C[N+](C)(C)CCOC(N)=O", 22000),
    ("Cc1noc([C@H]2CN3CC[C@H]2C3)n1", 32),
]

###

target: Muscarinic acetylcholine receptor M2 (Homo sapiens, UniProt P08172); experiment: In vitro negative chronotropic effect on electrically driven guinea pig atria(mediated by Muscarinic M2 receptor); details: target entry is the homologue from another species
Sequence (P08172 whole entry): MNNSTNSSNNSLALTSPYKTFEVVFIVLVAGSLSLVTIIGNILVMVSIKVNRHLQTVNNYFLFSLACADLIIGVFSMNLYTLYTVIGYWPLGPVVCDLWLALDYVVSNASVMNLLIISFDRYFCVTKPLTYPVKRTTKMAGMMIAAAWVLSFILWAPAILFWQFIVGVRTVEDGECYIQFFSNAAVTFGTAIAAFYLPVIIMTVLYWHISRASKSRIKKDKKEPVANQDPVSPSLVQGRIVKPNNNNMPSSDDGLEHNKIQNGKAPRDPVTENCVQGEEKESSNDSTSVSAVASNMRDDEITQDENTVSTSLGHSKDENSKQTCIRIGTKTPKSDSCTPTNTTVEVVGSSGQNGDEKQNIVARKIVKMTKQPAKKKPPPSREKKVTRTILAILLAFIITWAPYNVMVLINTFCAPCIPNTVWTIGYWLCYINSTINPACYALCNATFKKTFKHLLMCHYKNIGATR
pEC50: −log10 of the molar value.
assayEndpoint: pEC50

# smilesCode, observedResult
data = [
    ("Cc1noc([C@H]2CN3CC[C@@H]2C3)n1", 7.72),
    ("Cc1noc([C@H]2CN3CC[C@H]2C3)n1", 10.41),
    ("Cc1noc([C@@H]2CN3CC[C@@H]2C3)n1", 8.48),
]
